Entry source: patent US12371454B2

# SYSTEM_UNDER_TEST: Kras and SOS1 (biotin-tagged human Kras loaded with GDP, His-tagged human SOS1) (Homo sapiens, UniProt P01116, G12D)
# Construct: made in house; host or cells: E. coli (stated for Kras only)
# Sequence (P01116 1-188 isoform P01116-2 G12D): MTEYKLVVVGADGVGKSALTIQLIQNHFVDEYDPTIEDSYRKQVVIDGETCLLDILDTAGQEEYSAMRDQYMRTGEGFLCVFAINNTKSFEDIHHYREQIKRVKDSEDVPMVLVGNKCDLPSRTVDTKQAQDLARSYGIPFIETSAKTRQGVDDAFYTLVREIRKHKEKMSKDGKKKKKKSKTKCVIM
# TEST_NAME: Protein-protein interaction inhibition between Kras and SOS1 (KrasGl2D-SOS PPI) using AlphaScreen
# Assay type: binding
# CONDITION_PARAMETERS: AlphaScreen; biotin-tagged human Kras loaded with GDP, His-tagged human SOS1; read-out: KRAS G12D-SOS PPI IC50
Starred links: 1 amine or outer side, 2 acyl side, 3 side chain; linkers in the order of their positions; H or OH if unused. Positions of bridges follow the written chain, without caps; N, C: chain ends. Non-standard residues stand in square brackets, D forms with d. Residues, ends and D or L forms follow the SMILES beside them. *: point of attachment. hPhe(3-Cl-4-CF3) = N[C@@H](CCc1ccc(C(F)(F)F)c(Cl)c1)C(=O)O; NMePhe(4-CF3) = CN[C@@H](Cc1ccc(C(F)(F)F)cc1)C(=O)O; NMePhe(2-CF3) = CN[C@@H](Cc1ccccc1C(F)(F)F)C(=O)O; NMePhe(4-Me) = CN[C@@H](Cc1ccc(C)cc1)C(=O)O; NMedβ3hAla = C[C@H](CC(=O)[*:2])N(C)[*:1]; NMeAla(cPent) = CN[C@@H](CC1CCCC1)C(=O)O; NMeGly(cPent) = CN[C@H](C(=O)O)C1CCCC1; NMeY = CN[C@@H](Cc1ccc(O)cc1)C(=O)O; NMeCha = CN[C@@H](CC1CCCCC1)C(=O)O; NMeI = CC[C@H](C)[C@H](NC)C(=O)O; NMeD = CN[C@@H](CC(=O)O)C(=O)O; NMeL = CN[C@@H](CC(C)C)C(=O)O; NMeV = CN[C@H](C(=O)O)C(C)C; d(β3hA) = C[C@@H](N)CC(=O)O; NMeA = CN[C@@H](C)C(=O)O; NMeAib = CNC(C)(C)C(=O)O; Piperidide = C1CCN(*)CC1; Ac5c = NC1(C(=O)O)CCCC1; Aze = O=C(O)[C@@H]1CCN1; Sar = CNCC(=O)O
We label by threshold. Values of IC50 strictly beneath 100 nM are Fulfilled. Values of 100 nM and up are Not fulfilled.

The examples below pair each entry with its known result.
CC[C@H](C)[C@@H]1NC(=O)[C@H](CC(C)C)N(C)C(=O)C[C@@H](C)N(C)C(=O)[C@H](CC(C)C)NC(=O)C(C)(C)N(C)C(=O)[C@H](CC(C)C)NC(=O)[C@H](CCc2ccc(C(F)(F)F)c(Cl)c2)NC(=O)CN(C)C(=O)[C@H](Cc2ccc(C(F)(F)F)cc2)N(C)C(=O)[C@@H]2CCN2C(=O)[C@H](C)N(C)C1=O [Compound 1401] (cyclo([Aze][NMePhe(4-CF3)][Sar][hPhe(3-Cl-4-CF3)]L[NMeAib]L[NMedβ3hAla][NMeL]I[NMeA]))	Not fulfilled
CC[C@H](C)[C@@H]1NC(=O)[C@H](CC(C)C)N(C)C(=O)C[C@@H](C(=O)N(C)C)N(C)C(=O)[C@H]([C@@H](C)CC)N(C)C(=O)C2(CCCC2)NC(=O)[C@H](Cc2ccc(OC)cc2)N(C)C(=O)[C@H](CCc2ccc(C(F)(F)F)c(Cl)c2)NC(=O)CN(C)C(=O)[C@H](Cc2ccc(C)cc2)N(C)C(=O)[C@@H]2CCN2C(=O)[C@H](C)N(C)C1=O [Compound 1935] ([NMeL]I[NMeA][Aze][NMePhe(4-Me)][Sar][hPhe(3-Cl-4-CF3)][NMeY](Me)[Ac5c][NMeI][NMeD]-NMe2; lactam N-11)	Fulfilled
CC[C@H](C)[C@@H]1NC(=O)[C@H](C2CCCC2)N(C)C(=O)C[C@@H](C)NC(=O)[C@H](C(C)C)N(C)C(=O)C2(CCCC2)NC(=O)[C@@H]2CCCN2C(=O)[C@H](CCc2ccc(C(F)(F)F)c(Cl)c2)NC(=O)CN(C)C(=O)[C@H](CC2CCCCC2)N(C)C(=O)CN(C)C(=O)CN(C)C1=O [Compound 857] (cyclo([Ac5c][NMeV][d(β3hA)][NMeGly(cPent)]I[Sar][Sar][NMeCha][Sar][hPhe(3-Cl-4-CF3)]P))	Fulfilled
CC[C@H](C)[C@@H]1NC(=O)[C@H](CC(C)C)N(C)C(=O)C[C@@H](C)NC(=O)[C@H](C(C)C)N(C)C(=O)C2(CCCC2)NC(=O)[C@@H]2CCCN2C(=O)[C@H](CCc2ccc(C(F)(F)F)c(Cl)c2)NC(=O)CN(C)C(=O)[C@H](Cc2ccccc2C(F)(F)F)N(C)C(=O)CN(C)C(=O)CN(C)C1=O [Compound 1613] (cyclo([Ac5c][NMeV][d(β3hA)][NMeL]I[Sar][Sar][NMePhe(2-CF3)][Sar][hPhe(3-Cl-4-CF3)]P))	Not fulfilled

Q. Does the reported IC50 of CC[C@H](C)[C@@H]1NC(=O)[C@H](CC(C)C)N(C)C(=O)C[C@@H](C(=O)N2CCCCC2)N(C)C(=O)[C@H](C(C)C)N(C)C(=O)C2(CCCC2)NC(=O)[C@@H]2CCCN2C(=O)[C@H](CCc2ccc(C(F)(F)F)c(Cl)c2)NC(=O)CN(C)C(=O)[C@H](CC2CCCC2)N(C)C(=O)CN(C)C(=O)CN(C)C1=O [Compound 220] ([NMeL]I[Sar][Sar][NMeAla(cPent)][Sar][hPhe(3-Cl-4-CF3)]P[Ac5c][NMeV][NMeD]-Piperidide; lactam N-11) stay below 100 nM?
A. Fulfilled
